For each of the molecules below, state its IC50.
# Target or test system: BRAF V600E (Homo sapiens, UniProt P15056, V600E)
# Construct: purchased Invitrogen
# Sequence (P15056 whole entry V600E): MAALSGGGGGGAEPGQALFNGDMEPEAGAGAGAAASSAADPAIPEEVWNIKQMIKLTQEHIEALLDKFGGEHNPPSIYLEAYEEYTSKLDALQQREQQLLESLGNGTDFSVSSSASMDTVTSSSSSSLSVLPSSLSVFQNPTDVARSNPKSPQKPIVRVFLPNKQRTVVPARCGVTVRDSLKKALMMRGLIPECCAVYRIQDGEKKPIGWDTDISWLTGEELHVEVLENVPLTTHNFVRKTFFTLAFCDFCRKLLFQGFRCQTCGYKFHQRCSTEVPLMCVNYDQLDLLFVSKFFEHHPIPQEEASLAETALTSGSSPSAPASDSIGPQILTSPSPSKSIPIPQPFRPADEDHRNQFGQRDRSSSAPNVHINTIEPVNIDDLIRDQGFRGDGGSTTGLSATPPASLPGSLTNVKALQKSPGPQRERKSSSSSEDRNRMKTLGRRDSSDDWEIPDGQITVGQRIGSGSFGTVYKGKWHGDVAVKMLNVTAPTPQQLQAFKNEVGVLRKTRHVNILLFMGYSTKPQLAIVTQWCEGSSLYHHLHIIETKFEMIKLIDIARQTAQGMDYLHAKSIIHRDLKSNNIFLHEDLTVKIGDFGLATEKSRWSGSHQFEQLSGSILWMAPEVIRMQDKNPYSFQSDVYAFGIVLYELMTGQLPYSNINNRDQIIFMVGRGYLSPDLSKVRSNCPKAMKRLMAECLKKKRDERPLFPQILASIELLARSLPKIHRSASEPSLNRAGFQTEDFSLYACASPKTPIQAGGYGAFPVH
# Test protocol: LanthaScreen kinase assay, BRAF V600E
# Type: biochemical
# Condition details: ATP 10 μM

Known IC50 results, listed for orientation:
CCCS(=O)(=O)Nc1cc(F)c(F)c(C(=O)c2ccc3ncc(-c4cn[nH]c4)nc3c2)c1F :: < 50 nM
O=C(c1ccc2ncc(N3CCOCC3)nc2c1)c1c(F)c(F)cc(NS(=O)(=O)C2CC2)c1F :: 100 to 1000 nM
CCCS(=O)(=O)Nc1cc(F)cc(C(=O)c2ccc3ncc(N4CCOCC4)nc3c2)c1 :: < 50 nM

// input: 5 molecules below; output: IC50 for each
1. CCCS(=O)(=O)Nc1cc(F)c(F)c(C(=O)c2ccc3ncc(N4CCOCC4)nc3c2)c1F
2. CCCS(=O)(=O)Nc1ccc(F)c(C(=O)c2ccc3ncc(N4CCOCC4)nc3c2)c1Cl
3. CCCS(=O)(=O)Nc1cc(F)c(F)c(C(=O)c2ccc3ncc(F)nc3c2)c1F
4. CCCS(=O)(=O)Nc1ccc(F)c(C(=O)c2ccc3ncc(N4CCOCC4)nc3c2)c1F
5. CCCS(=O)(=O)Nc1cc(F)c(F)c(C(=O)c2ccc3ncc(-n4ccnc4C)nc3c2)c1F

1: < 50 nM; 2: > 1000 nM; 3: < 50 nM; 4: 100 to 1000 nM; 5: < 50 nM
